Target: T1, Mouse Fc-human GDF15 (Mu IgG1Fc_Fxa_Hu GDF15) (human)
T1 construct: Whole entry is the fusion: mouse IgG1 Fc, FXa site and linker, mature human GDF15; described as dimeric; also called Murine dimeric IgG1 Fc-human GDF-15 with FXa cleavage site; control human GDF15
T1 chain: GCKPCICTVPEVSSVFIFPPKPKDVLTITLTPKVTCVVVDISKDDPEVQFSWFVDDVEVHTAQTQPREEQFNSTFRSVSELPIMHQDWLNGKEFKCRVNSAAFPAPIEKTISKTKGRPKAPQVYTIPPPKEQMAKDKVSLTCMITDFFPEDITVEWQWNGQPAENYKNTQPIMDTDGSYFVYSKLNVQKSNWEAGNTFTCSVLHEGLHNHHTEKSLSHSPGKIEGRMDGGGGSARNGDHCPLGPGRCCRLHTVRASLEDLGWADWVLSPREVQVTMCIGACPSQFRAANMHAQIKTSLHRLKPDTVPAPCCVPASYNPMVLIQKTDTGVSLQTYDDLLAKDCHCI
Assay: SPR BIAcore T200, 37C; Fc-GDF15 captured, IgG as analyte; average of runs
For each entry below, report its Kd value.
Give bare numbers, in nM.

A selection of reference data follows.
- GDF15_010 (antibody, human IgG1, kappa, V domains shown, Tested in bivalent format) VH: QVQLVQSGAEVKKPGSSVKVSCKASGYTFSDYNIDWVRQAPGQGLEWMGGINPNNGLAFFNQKFQGRVTITADESTSTAYMELSSLRSEDTAVYYCAREAITTVGAMDYWGQGTLVTVSS VL: EIVLTQSPATLSLSPGERATLSCRTSQSLHSYLAWYQQKPGQAPRLLIYDASNRATGIPARFSGSGSGTDFTLTISSLEPEDFAVYYCQQFWNDPWTFGQGTKVEIKR: 0.0157
- GDF15_003 (antibody, human IgG1, kappa, V domains shown, Tested in bivalent format) VH: QVQLVQSGAEVKKPGSSVKVSCKASGYTFTSYNIDWVRQAPGQGLEWMGQINPNNGLAFYNQKFQGRVTITADESTSTAYMELSSLRSEDTAVYYCAREQITTVGAMDYWGQGTLVTVSS VL: EIVLTQSPATLSLSPGERATLSCRASQSLSSYLAWYQQKPGQAPRLLIYDAKNRADGIPARFSGSGSGTDFTLTISSLEPEDFAVYYCQQFSSDPYTFGQGTKVEIKR: 0.0271
- GDF15_022 (antibody, human IgG1, kappa, V domains shown, Tested in bivalent format) VH: QVQLVQSGAEVKKPGSSVKVSCKASGYTFSDYNIDWVRQAPGQGLEWMGQINPNNGLIFFNQKFQGRVTITADESTSTAYMELSSLRSEDTAVYYCAREVITTVGAMDYWGQGTLVTVSS VL: EIVLTQSPATLSLSPGERATLSCRTSQSVHSYLAWYQQKPGQAPRLLIYDAKTRADGIPARFSGSGSGTDFTLTISSLEPEDFAVYYCQQFSSDPYTFGQGTKVEIKR: 0.0156

Shift focus to the following entry.
stdin: Returns the measured Kd for the input binder. Input: GDF15_015 (antibody, human IgG1, kappa, V domains shown, Tested in bivalent format) VH: QVQLVQSGAEVKKPGSSVKVSCKASGYTFSDYNMDWVRQAPGQGLEWMGQINPNNGLAFYNQKFQGRVTITADESTSTAYMELSSLRSEDTAVYYCAREAITTVGATDYWGQGTLVTVSS VL: EIVLTQSPATLSLSPGERATLSCRTSQNVHSYLAWYQQKPGQAPRLLIYDASNLADGIPARFSGSGSGTDFTLTISSLEPEDFAVYYCQQFSNDPWTFGQGTKVEIKR
stdout: 0.0584
